Test system: HCT 116 colon cancer cell line
PROTOCOL_DETAILS: In vitro cytotoxicity, WST-1 viability test
Assay type: cell-based
STATED_CONDITIONS: Homo sapiens, incubation time 48 h, mean of 3 independent experiments
MEASUREMENT_TYPE: IC50 (nM)
Provide only the numeric value, understood in nM.

Which IC50 is reported for this molecule? COc1cccc2c1C(=O)c1c(O)c3c(c(O)c1C2=O)C[C@@](O)(C(=O)CO)C[C@@H]3O[C@H]1C[C@H](N)[C@H](O)[C@H](C)O1 [doxorubicin (dox), doxorubicin]
34

---

Tested on: HCT 116 colon cancer cell line
PROTOCOL_DETAILS: In vitro cytotoxicity, WST-1 viability test
Type: cell-based
STATED_CONDITIONS: incubation time 24 h, mean of 3 independent experiments
MEASUREMENT_TYPE: IC50 (µM)
Provide only the numeric value, understood in µM.

Which IC50 is reported for this compound? CO[C@@]12[C@H](COC(N)=O)C3=C(C(=O)C(C)=C(N)C3=O)N1C[C@@H]1N[C@@H]12
5

Every entry's value here was drawn from patent EP1977765A1.
